test system: pancreatic cancer (8 cell lines); assay: CellTiter-Glo Viability Assay, pancreatic cancer; format: cell-based; settings: Homo sapiens, Capan-2; Capan2 cell line; inhibition of cancer cell proliferation; read-out: Pancreatic cancer, EC50 Capan2
property.measured: EC50 (nM)

1: O=C(Nc1c[nH]nc1-c1nc2c(-c3cccc(F)c3)cncc2[nH]1)c1cccnc1
2: Cc1ncc(C(=O)Nc2cc3nc(-c4cnc(C)n4C)ccc3cn2)s1
3: CN(C)C1CN(c2cc(C(=O)Nc3cc4cc(-c5cnn(C)c5)ccc4cn3)ccn2)C1
Method: rank(items above, key=EC50, ascending=True) Answer format: the labels, ordered as requested.
1, 2, 3
(1: 74 nM, 2: 579 nM, 3: 1140 nM)

###

system: pancreatic cancer (8 cell lines); test: CellTiter-Glo Viability Assay, pancreatic cancer; format: cell-based; conditions: Homo sapiens, Capan-2; Capan2 cell line; inhibition of cancer cell proliferation; read-out: Pancreatic cancer, EC50 Capan2
property.measured: EC50 (nM)

1: O=C(Nc1cncc(-c2ccc3[nH]nc(-c4cc5cnccc5[nH]4)c3c2)c1)C1CCCCC1 [Compound 47]
2: CN1CCCCN(C)c2nccc3[nH]c(nc23)-c2n[nH]c3ccc(cc23)-c2cncc(c2)C1 [Compound 58]
Consider 1 and 2 . Which of these has its EC50 at a higher number? Which one? Tell me its label.
1

A: Cn1ncc(-c2ccc3cnc(NC(=O)C4CC5(C4)CN(CCF)C5)cc3c2)c1CN1CCCCC1 [Compound 77]
B: c1cc2cc(c1)-c1cncc3[nH]c(nc13)-c1n[nH]c3ccc(cc13)-c1cncc(c1)CNC2 [Compound 54]
Please let me know which one, A or B , has a lower measured EC50 value. Write down the label of the entry you select.
B
(B: 94 nM, A: 495 nM)

P: Cc1ncc(-c2ccc3cnc(NC(=O)c4cnn(C5CCN(C)CC5)c4)cc3c2)o1 [Compound 83]
Q: CN(C)Cc1cncc(-c2cnc3[nH]nc(-c4nc5c(-c6cc(F)cc(N7CCOCC7)c6)cncc5[nH]4)c3c2)c1 [Compound 46]
Of P versus Q , which is the one with smaller reported EC50? In your reply, give the label of the chosen option.
P

I: CS(=O)(=O)NCc1cc(F)cc(-c2nccc3[nH]c(-c4n[nH]c5ccc(-c6cncc(NC(=O)C7CCC7)c6)cc45)cc23)c1 [Compound 53]
II: Cc1n[nH]c2cc(F)c(-c3cncc(CN4CCNCC4)c3)cc12 [Compound 63]
Lab note: check whether I or II shows the higher recorded EC50. Could you answer with the label of the item you picked?
II

###

target: BMPR1B (ALK6) (Homo sapiens)
Sequence (O00238 14-502): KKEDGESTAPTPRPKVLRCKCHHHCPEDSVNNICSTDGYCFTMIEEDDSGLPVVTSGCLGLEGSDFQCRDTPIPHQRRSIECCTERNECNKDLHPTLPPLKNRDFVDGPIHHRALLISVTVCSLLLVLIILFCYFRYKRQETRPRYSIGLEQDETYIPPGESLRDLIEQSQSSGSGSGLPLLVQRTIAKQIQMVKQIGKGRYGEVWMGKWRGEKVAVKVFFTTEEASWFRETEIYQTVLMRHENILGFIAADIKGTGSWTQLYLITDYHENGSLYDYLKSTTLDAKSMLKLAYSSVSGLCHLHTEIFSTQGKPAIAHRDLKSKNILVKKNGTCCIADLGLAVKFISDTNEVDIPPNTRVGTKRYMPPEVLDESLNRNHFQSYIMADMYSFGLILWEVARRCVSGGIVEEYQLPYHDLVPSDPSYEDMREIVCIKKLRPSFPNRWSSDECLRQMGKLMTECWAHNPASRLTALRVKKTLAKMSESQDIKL
property.measured: IC50 (nM)
Number in nM, nothing else.

Could you share which IC50 value was measured for CN1CCN(c2cc(C(=O)Nc3cc4cc(-c5cnn(C)c5)ccc4cn3)ccn2)CC1 ?
33

###

test: Plasma pharmacokinetics after single IV bolus or oral dose; assay type: in vivo, mice; conditions: mouse, plasma; IV, 2 mg/kg, male Balb/c mice
property.measured: C0 (µg/mL)
Give your result in µg/mL as a bare value.

Recorded C0 of CN1CCN(c2cc(C(=O)Nc3cc4cc(-c5cnn(C)c5)ccc4cn3)ccn2)CC1 , please.
1.12

###

Tested on: ovarian cancer (4 cell lines)
Test: CellTiter-Glo Viability Assay, ovarian cancer
Assay type: cell-based
Settings: Homo sapiens, PA-1; PA1 cell line; inhibition of cancer cell proliferation; read-out: Ovarian cancer, EC50 (μM) PA1
Procedure: Fifty-one human cancer cell lines (breast cancer (8 cell lines), colorectal cancer (6 cell lines), haematopoietic & lymphoid tumors (13 cell lines), liver cancer (3 cell lines), lung cancer (4 cell lines), ovarian cancer (4 cell lines), pancreatic cancer (8 cell lines), and prostate cancer (5 cell lines)) were tested to determine the effects of representative compounds of Formulas (I)-(XII) on cellular proliferation, as evaluated using the CellTiter-Glo® Viability Assay. […]
property.measured: EC50 (µM)

line.notation	numeric.result
CN1CCC2(CC1)CN(c1cc(C(=O)Nc3cc4cc(-c5cnn(C)c5)ccc4cn3)ccn1)C2	0.209

a: O=C(Nc1c[nH]nc1-c1nc2c(-c3cccc(F)c3)cncc2[nH]1)c1cccnc1
b: Cc1n[nH]c2cc(F)c(-c3cncc(CN4CCNCC4)c3)cc12
Endpoint returns whichever of a and b has the numerically higher EC50. Write the label of whichever entry you select.
b

###

system: pancreatic cancer (8 cell lines); assay: CellTiter-Glo Viability Assay, pancreatic cancer; assay type: cell-based; conditions: Homo sapiens, CAPAN-1; Capan1 cell line; inhibition of cancer cell proliferation; read-out: Pancreatic cancer, EC50 Capan1
pEC50: −log10 of the molar value.
property.measured: pEC50

line.notation	assayed.system	pEC50
O=C1COc2cccc(c2)-c2cncc3[nH]c(nc23)-c2n[nH]c3ccc(cc23)-c2cncc(c2)N1	pancreatic cancer (8 cell lines)	5.44

I: CN1CCN(c2ccc(NC(=O)c3n[nH]c4ccc(-c5cncc(NC(=O)C6CC6)c5)cc34)cn2)CC1
II: CN1CCN(c2cc(C(=O)Nc3cc4cc(-c5nnc(N(C)C)s5)ccc4cn3)ccn2)CC1
Lower value for measured pEC50? Options: I , II Identify your selection by its label.
I

###

molecular target: CLK2 (Homo sapiens); construct: purchased Thermo Fisher (Life Technologies), Z'-LYTE Kinase Assay Kits; assay: CLK2 kinase activity assay (Z-lyte, Ser/Thr 6 peptide); assay type: biochemical; settings: recombinant CLK2 kinase, ATP 60 μM; read-out: EC50
Sequence (P49760 whole entry): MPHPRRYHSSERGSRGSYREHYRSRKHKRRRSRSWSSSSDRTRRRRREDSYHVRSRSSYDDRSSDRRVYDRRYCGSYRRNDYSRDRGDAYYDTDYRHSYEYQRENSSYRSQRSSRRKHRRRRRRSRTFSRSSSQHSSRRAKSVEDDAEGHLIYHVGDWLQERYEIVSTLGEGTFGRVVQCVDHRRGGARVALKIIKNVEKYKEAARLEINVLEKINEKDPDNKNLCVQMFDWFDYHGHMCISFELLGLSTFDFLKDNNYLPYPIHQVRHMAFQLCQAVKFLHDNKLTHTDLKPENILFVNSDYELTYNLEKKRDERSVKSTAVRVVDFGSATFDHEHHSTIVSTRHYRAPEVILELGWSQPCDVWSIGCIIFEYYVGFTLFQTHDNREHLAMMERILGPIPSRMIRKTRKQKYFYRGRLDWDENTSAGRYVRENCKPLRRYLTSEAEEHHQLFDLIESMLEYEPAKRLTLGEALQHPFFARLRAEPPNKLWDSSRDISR
pEC50: −log10 of the molar value.
property.measured: pEC50

molecule	pEC50
CN1CCC(Oc2ccc(NC(=O)c3n[nH]c4cc(F)c(-c5cnn(C)c5)cc34)cc2)CC1 [Compound 61]	9.22
c1cncc(-c2ccc3[nH]nc(-c4cc5c(-c6cccnc6)cncc5[nH]4)c3c2)c1 [Compound 48]	10.00

I: CCC(=O)Nc1cncc(-c2ccc3[nH]nc(-c4nc5c(-c6cccnc6)cncc5[nH]4)c3c2)c1 [Compound 40]
II: Cc1n[nH]c2ccc(-c3cncc(N[C@H]4CC[C@@H](N)CC4)n3)cc12 [Compound 64]
III: Cn1ncc(-c2ccc3cnc(NC(=O)c4ccnc(N5CCOCC5)c4)cc3c2)c1CN1CCOCC1 [Compound 13]
Arrange the 3 molecules by rising pEC50, starting with the smallest. Returns: the labels arranged in the requested order.
I, II, III

A: CN1CCC2(CC1)CN(c1cc(C(=O)Nc3cc4cc(-c5cnn(C)c5)ccc4cn3)ccn1)C2 [Compound 71]
B: CN(C)C1CCN(c2cc(C(=O)Nc3ncc4ccc(-c5cn(C)nn5)cc4n3)ccn2)CC1 [Compound 80]
Which of the two items, A and B , has the greater recorded pEC50? Reply briefly: the label of your chosen item.
A
(A: 8.96, B: 8.05)

###

tested on: liver cancer (3 cell lines); assay: CellTiter-Glo Viability Assay, liver cancer; format: cell-based; settings: Homo sapiens, SNU-398; SNU398 cell line; inhibition of cancer cell proliferation; read-out: Liver cancer, EC50 SNU398
property.measured: EC50 (nM)

The examples below pair each entry with its known result.
line.notation	unit	numeric.result
CN(C)C1CCN(c2cc(C(=O)Nc3ncc4ccc(-c5cn(C)nn5)cc4n3)ccn2)CC1	nM	631
CN(C)CCOc1cc(C(=O)Nc2cc3cc(-c4cnn(C)c4)ccc3cn2)ccn1	nM	88
Cc1ncc(-c2ccc3cnc(NC(=O)c4cnn(C5CCN(C)CC5)c4)cc3c2)o1	nM	50
CC(C)Nc1cncc(-c2ccc3cnc(NC(=O)c4cn(C5CCN(CCF)CC5)nn4)cc3c2)n1	nM	96

A: CN1CCN(c2cc(C(=O)Nc3cc4cc(-c5cn(C)nn5)ccc4cn3)ccn2)CC1
B: CN1CCCn2cc(nn2)-c2nccc3[nH]c(nc23)-c2n[nH]c3ccc(cc23)-c2cncc(c2)C1
C: [2H]c1c([2H])c([2H])c(/C=C/C(=O)Nc2cc3cc(-c4cncn4C)ccc3cn2)c([2H])c1[2H]
D: COc1ccc(NC(=O)c2n[nH]c3ccc(-c4cncc(CN5CCCCC5)c4)cc23)cn1
// sort entries: EC50, high to low Reply with the labels, ordered as the question asks.
B, D, C, A

###

system: liver cancer (3 cell lines); test: CellTiter-Glo Viability Assay, liver cancer; type: cell-based; conditions: Homo sapiens, SNU-398; SNU398 cell line; inhibition of cancer cell proliferation; read-out: Liver cancer, EC50 SNU398
property.measured: EC50 (nM)

line.notation	unit	EC50
Cc1n[nH]c2ccc(-c3cncc(N[C@H]4CC[C@H](O)CC4)n3)cc12	nM	132
CN1CCC(Sc2ccc3cnc(NC(=O)c4ccnc(SC5CCN(C)CC5)c4)cc3c2)CC1	nM	167
CN1CCN(c2cc(C(=O)Nc3cc4cc(-c5nnc(N(C)C)s5)ccc4cn3)ccn2)CC1	nM	234

A: CN(C)Cc1cncc(-c2ccc3[nH]nc(-c4cc5c(-c6ccoc6)ccnc5[nH]4)c3c2)c1
B: CN1CCC(Oc2ccc(NC(=O)c3n[nH]cc3/C=C/c3cccnc3)cn2)CC1
C: O=C(Nc1cncc(-c2ccc3[nH]nc(-c4cc5cnccc5[nH]4)c3c2)c1)C1CCCCC1
D: c1cncc(-c2ccc3[nH]nc(-c4cc5c(-c6cccnc6)cncc5[nH]4)c3c2)c1
E: CN1CCCCN(C)c2nccc3[nH]c(nc23)-c2n[nH]c3ccc(cc23)-c2cncc(c2)C1
Parameters: sort_field (EC50), sort_dir (desc). Answer with the labels in sequence, matching the requested order.
B, D, A, C, E
